Origin of values: patent US20150147274A1

Target: T1, MET928 (cMET protein derived from construct 25-928) (human, UniProt P08581 25-928)
T1 construct: MET ectodomain, residues 1-24 are the leader; produced in Lec 8 cells; background text says the ectodomain is furin-cleaved into alpha (25-307) and beta chains; biotinylated form used in selections; also called MET928 extracellular domain; Met extracellular domain
T1 sequence (P08581 25-928): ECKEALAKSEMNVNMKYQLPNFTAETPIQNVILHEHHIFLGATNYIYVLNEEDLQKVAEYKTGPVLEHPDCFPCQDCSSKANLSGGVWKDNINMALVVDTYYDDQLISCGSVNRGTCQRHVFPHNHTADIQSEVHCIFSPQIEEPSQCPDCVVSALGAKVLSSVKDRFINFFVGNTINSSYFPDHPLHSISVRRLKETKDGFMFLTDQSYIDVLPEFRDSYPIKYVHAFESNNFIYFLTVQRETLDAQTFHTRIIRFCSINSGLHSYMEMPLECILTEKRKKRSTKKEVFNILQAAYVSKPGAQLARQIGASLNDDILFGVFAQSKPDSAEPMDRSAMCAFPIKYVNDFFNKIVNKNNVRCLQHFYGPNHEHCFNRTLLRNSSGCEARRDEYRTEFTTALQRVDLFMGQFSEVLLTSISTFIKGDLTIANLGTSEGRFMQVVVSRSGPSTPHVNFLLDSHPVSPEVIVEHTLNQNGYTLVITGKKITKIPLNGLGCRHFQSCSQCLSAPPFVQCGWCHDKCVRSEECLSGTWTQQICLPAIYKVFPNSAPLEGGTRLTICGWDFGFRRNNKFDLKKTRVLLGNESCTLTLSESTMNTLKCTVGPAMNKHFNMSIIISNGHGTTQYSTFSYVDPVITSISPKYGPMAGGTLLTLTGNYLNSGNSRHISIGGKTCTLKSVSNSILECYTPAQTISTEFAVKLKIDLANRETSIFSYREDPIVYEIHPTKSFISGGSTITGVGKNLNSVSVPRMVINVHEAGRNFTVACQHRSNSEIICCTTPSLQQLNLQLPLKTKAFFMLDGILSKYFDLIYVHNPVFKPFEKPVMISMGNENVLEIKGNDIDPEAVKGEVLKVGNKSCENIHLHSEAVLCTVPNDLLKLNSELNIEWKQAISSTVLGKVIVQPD
Assay: Biacore SPR, MET-928 on chip, Fab format
READOUT LABEL: koff

Report koff for each item below.
1. 110_A06 Fab (His/tri-FLAG tagged, hinged) (Fab, V domains shown, Fab from pBIOCAM7-3F, hinged, hexahistidine and tri-FLAG tags on the heavy chain) VH: QMQLVQSGAEVKKPGAPVKVSCKVSGYTFTDYYMHWVQQAPGKGLEWMGLVDPEDGETIYAEKFQGRVTITADTSTDTAYMELSSLRSEDTAVYYCATDATTPYWGMQLWGQGTLVTVSS VL: DIQMTQSPSSLSASVGDRVTITCQASQDISNYLNWYQQKPGRAPKVLIYDASNLETGVPSRFSGSGSGTEFTLTISNLRPDDFATYYCQQGDSFPLTFGGGTKVEIK
2. 107_A01 Fab (His/tri-FLAG tagged, hinged) (Fab, V domains shown, Fab from pBIOCAM7-3F, hinged, hexahistidine and tri-FLAG tags on the heavy chain) VH: QMQLVQSGAEVKKPGAPVKVSCKVSGYTFTDYYMHWVQQAPGKGLEWMGLVDPEDGETIYAEKFQGRVTITADTSTDTAYMELSSLRSEDTAVYYCATDATTPYWGMVSWGQGTLVTVSS VL: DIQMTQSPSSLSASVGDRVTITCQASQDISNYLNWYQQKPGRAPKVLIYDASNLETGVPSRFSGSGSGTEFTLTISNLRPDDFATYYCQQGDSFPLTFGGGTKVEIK
3. 107_A07 Fab (His/tri-FLAG tagged, hinged) (Fab, V domains shown, Fab from pBIOCAM7-3F in HEK293 cells, hinged format (Leu-Glu after VH), hexahistidine and tri-FLAG tags on the heavy chain) VH: QMQLVQSGAEVKKPGAPVKVSCKVSGYTFTDYYMHWVQQAPGKGLEWMGLVDPEDGETIYAEKFQGRVTITADTSTDTAYMELSSLRSEDTAVYYCATDATTPYWGMMWWGQGTLVTVSS VL: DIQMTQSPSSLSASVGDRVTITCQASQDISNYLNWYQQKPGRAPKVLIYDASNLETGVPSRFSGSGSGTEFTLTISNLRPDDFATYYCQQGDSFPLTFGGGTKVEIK
4. 7A2 Fab (His- and FLAG-tagged, hinged format) (Fab, V domains shown, Fab from pBIOCAM7-3F in HEK293 cells, hinged format (Leu-Glu after VH), hexahistidine and tri-FLAG tags at the C-terminus of the heavy chain) VH: QMQLVQSGAEVKKPGAPVKVSCKVSGYTFTDYYMHWVQQAPGKGLEWMGLVDPEDGETIYAEKFQGRVTITADTSTDTAYMELSSLRSEDTAVYYCATDATTPYYGMDVWGQGTLVTVSS VL: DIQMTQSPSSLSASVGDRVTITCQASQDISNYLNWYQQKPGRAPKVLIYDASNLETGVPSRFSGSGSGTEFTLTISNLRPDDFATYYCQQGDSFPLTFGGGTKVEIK

A.
["0.00128 s⁻¹", "0.00123 s⁻¹", "0.00116 s⁻¹", "0.0882 s⁻¹"]
